// data source = paper PMC10397247

- Target Or System: T1, 4H3591-AA
- T1 chain: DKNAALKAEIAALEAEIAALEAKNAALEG
- Experiment Notes: two-hybrid library CCmax;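 note: natural log of median RNA to DNA barcode read ratio; higher means stronger binding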
- Cond: mean of both orientations
Note to self: values exactly at -1 are class 1. So interaction score at or above -1 is class 1, below is class 0.

Illustrative cases are given below, each with its answer.
DENAALEAEIAALEAKIAALEAKNAALKG [4H1064-AA] ... class 1
DKIAALKAKNAALEAEIAALEAENAALKG [4H2948-AA] ... class 0
DKIAALKAKNAALKAENAALEAKIAALEG [4H3029-AA] ... class 0

Ask | Can DKNAALEAKIAALKAENAALKAEIAALEG [4H3417-AA] be said to have interaction score at or above -1?
Reply | class 0

Ask | Can DEIAALEAENAALEAENAALEAEIAALKG [4H146-AA] be said to have interaction score at or above -1?
Reply | class 0

Ask | Can DKIAALKAKNAALEAKIAALKAKNAALEG [4H2991-AA] be said to have interaction score at or above -1?
Reply | class 0

Ask | Can DEIAALKAKNAALKAKIAALEAKNAALKG [4H1000-AA] be said to have interaction score at or above -1?
Reply | class 1

Ask | Can DEIAALEAENAALEAKNAALKAKIAALEG [4H189-AA] be said to have interaction score at or above -1?
Reply | class 1
